Each entry below carries its recorded pKd.
Target: TSLP, Q969D9
Assay: Kd (SPR)
// pKd: -log10(molar conc.)

unnamed (protein) chain 1: QMQLVESGGGVVQPGRSLRLSCAASGFTFSTYAMHWVRQAPGKGLEWVAVIWYDGSNKHYADSVKGRFTITRDNSKNTLNLQMNSLRAEDTAVYYCARAPRYDDYLEAFDVWGQGTMVTVSS chain 2: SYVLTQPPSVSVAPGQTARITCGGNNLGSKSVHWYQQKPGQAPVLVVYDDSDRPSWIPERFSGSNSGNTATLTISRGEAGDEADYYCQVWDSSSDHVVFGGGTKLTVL ... 6.82

Inquiry: Request the reported pKd associated with unnamed (protein) chain 1: QMQLVESGGGVVQPGRSLRLSCAASGFTFSTFAMHWVRQAPGKGLEWVAVIWYDGSNKHYADSVKGRFTITRDNSKNTLNLQMNSLRAEDTAVYYCARAPRYYDYLEAFDVWGQGTMVTVSS chain 2: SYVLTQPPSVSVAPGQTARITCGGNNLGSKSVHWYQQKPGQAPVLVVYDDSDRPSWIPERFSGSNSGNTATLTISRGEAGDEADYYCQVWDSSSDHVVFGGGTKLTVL
Reply text: 7.20

Inquiry: // pKd lookup, key: unnamed (protein) chain 1: QMQLVESGGGVVQPGRSLRLSCAASGFTFSTYAMHWVRQAPGKGLEWVAVIWYDGSNKHYADSVKGRFTITRDNSKNTLNLQMNSLRAEDTAVYYCARAPRYDYYWEAFDVWGQGTMVTVSS chain 2: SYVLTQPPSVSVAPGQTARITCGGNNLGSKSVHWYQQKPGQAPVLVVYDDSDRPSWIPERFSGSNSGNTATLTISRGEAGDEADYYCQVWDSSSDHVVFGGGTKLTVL
Reply text: 6.82

Inquiry: Field request: pKd | item: unnamed (protein) chain 1: QMQLVESGGGVVQPGRSLRLSCAASGFTFRTYGMHWVRQAPGKGLEWVAVIWYDGSNKHYADSVKGRFTITRDNSKNTLNLQMNSLRAEDTAVYYCARAPRYDDTYEAFDVWGQGTMVTVSS chain 2: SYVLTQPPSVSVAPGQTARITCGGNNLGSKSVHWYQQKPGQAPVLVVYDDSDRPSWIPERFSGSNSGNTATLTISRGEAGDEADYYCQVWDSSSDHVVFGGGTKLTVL
Reply text: 7.06

Inquiry: Would you kindly share the measured pKd for unnamed (protein) chain 1: QMQLVESGGGVVQPGRSLRLSCAASGFTFRTYGMHWVRQAPGKGLEWVAVIWYDGSNKHYADSVKGRFTITRDNSKNTLNLQMNSLRAEDTAVYYCARAPRYDWLYEAFDVWGQGTMVTVSS chain 2: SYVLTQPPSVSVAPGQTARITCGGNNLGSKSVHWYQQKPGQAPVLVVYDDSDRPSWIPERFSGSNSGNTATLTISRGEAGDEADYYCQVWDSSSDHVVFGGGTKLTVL ?
Reply text: 7.08
